- Experiment Summary: Cytotoxicity against human HEp2 cells
- Assay type: cell-based, HEp-2
Readout Name: log10 CC50 (log10 of the value in µM)

{"columns": ["Molecule", "log10 CC50"],
 "data": [
  ["CC(C)CCn1c(Cn2c(=O)n(C(C)C)c3ccccc32)nc2cc(C(N)=O)ccc21", 1.37],
  ["COC(=O)c1ccc2c(c1)nc(Cn1c(=O)n(C(C)C)c3ccccc31)n2CCC(C)C", 1.53],
  ["C=C(C)n1c(=O)n(Cc2nc3ccccc3n2CCC(C)C)c2ccccc21", 1.39],
  ["C=C(C)n1c(=O)n(Cc2nc3cc(C#N)ccc3n2CCC(C)C)c2ccccc21", 0.17],
  ["CC(C)CCn1c(Cn2c(=O)n(C(C)C)c3ccccc32)nc2cc(CN)ccc21", 0.59],
  ["CC(C)CCn1c(Cn2c(=O)n(C(C)C)c3ccccc32)nc2cc(/C(N)=N\\O)ccc21", 0.96],
  ["C=Cc1ccc2c(c1)nc(Cn1c(=O)n(C(C)C)c3ccccc31)n2CCC(C)C", 0.81],
  ["CC(C)CCn1c(Cn2c(=O)n(C(C)C)c3ccccc32)nc2cc(CNC3CC3)ccc21", 1.24],
  ["CC(C)CCn1c(Cn2c(=O)n(C(C)C)c3ccccc32)nc2cccc(CN)c21", 1.04]
]}

meta.source: ChEMBL document CHEMBL1140659
